# maps each entry to its pIC50
molecular target: IDH1 R132H enzyme (Homo sapiens (Human), UniProt O75874, R132H); assay: Mutant IDH1 R132H biochemical assay; settings: luminescent NADPH consumption readout; 1.5 nM enzyme, 1 μM NADPH, 250 μM α-KG, 30 min, 32° C.
Sequence (O75874 whole entry R132H): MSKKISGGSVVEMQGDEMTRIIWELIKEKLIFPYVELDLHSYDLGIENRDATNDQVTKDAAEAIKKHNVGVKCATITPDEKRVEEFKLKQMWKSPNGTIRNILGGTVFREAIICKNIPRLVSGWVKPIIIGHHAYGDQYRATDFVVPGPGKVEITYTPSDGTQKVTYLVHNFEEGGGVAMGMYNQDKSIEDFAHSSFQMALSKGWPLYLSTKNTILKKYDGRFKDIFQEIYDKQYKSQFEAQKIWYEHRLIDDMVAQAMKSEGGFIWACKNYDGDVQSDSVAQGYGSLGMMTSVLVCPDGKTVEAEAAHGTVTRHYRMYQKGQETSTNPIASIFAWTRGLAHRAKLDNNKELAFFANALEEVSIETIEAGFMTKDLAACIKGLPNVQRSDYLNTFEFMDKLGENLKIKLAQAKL
Scale: negative log10 of molar concentration, which is what pIC50 denotes.

The cases that follow already have their pIC50 on record.
- Compound: "Cc1cc2c(cc1CC(C)(C)O)nc(Nc1ccc(OC(F)(F)F)cc1)n2[C@H]1C[C@@H](C)CC(C)(C)C1 (single isomer, unassigned; enantiomer a) [Example 2-8-1]"
  pIC50: 6.92
- Compound: "COc1cc2c(cc1C(C)(C)O)nc(Nc1ccc(OC(F)(F)F)cc1)n2[C@H]1C[C@@H](C)CC(C)(C)C1 (single isomer, unassigned; enantiomer b) [Example 2-7-2]"
  pIC50: 7.70
- Compound: "COc1cc2c(cc1CCC(C)(C)O)nc(Nc1ccc(OC(F)(F)F)cc1)n2[C@H]1C[C@@H](C)CC(C)(C)C1 (single isomer, unassigned; enantiomer b) [Example 2-12-2]"
  pIC50: 8.00
- Compound: "C[C@@H]1C[C@H](n2c(Nc3ccc(OC(F)(F)F)cc3)nc3cc(CO)ccc32)CC(C)(C)C1 (single isomer, unassigned; enantiomer b) [Example 2-1-2]"
  pIC50: 7.15
- Compound: "COc1cc2c(cc1CO)nc(Nc1ccc(OC(F)(F)F)cc1)n2[C@H]1C[C@@H](C)CC(C)(C)C1 (racemic) [Example 2-6]"
  pIC50: 7.70

Summary line: CC(C)c1ccc(Nc2nc3cc(CC(C)(C)O)ccc3n2[C@@H]2C[C@H](C)CC[C@H]2C(C)C)cc1 , IDH1 R132H enzyme (Homo sapiens (Human), UniProt O75874, R132H), reported pIC50 = 7.22

The observed pIC50 for Cc1cc2c(cc1C(C)(C)O)nc(Nc1ccc(OC(F)(F)F)cc1)n2[C@H]1C[C@@H](C)CC(C)(C)C1 (single isomer, unassigned; enantiomer b) [Example 2-3-2] when tested with IDH1 R132H enzyme (Homo sapiens (Human), UniProt O75874, R132H) stands at 7.70

Hey, IDH1 R132H enzyme (Homo sapiens (Human), UniProt O75874, R132H) data for CC(C)c1ccc(Nc2nc3cc(CCC(C)(C)O)ccc3n2[C@@H]2C[C@H](C)CC[C@H]2C(C)C)cc1 : pIC50 came out at 6.54

Here CC(C)c1ccc(Nc2nc3cc(C(C)(C)O)ccc3n2[C@@H]2C[C@H](C)CC[C@H]2C(C)C)cc1 was tested on IDH1 R132H enzyme (Homo sapiens (Human), UniProt O75874, R132H), and its pIC50 came to 6.92

# Cc1cc2c(cc1C(C)(C)O)nc(Nc1ccc(OC(F)(F)F)cc1)n2C1CC(C)(C)CC(C)(C)C1 with IDH1 R132H enzyme (Homo sapiens (Human), UniProt O75874, R132H): pIC50 is 7.52

====

test system: LN229 R132H cells overexpressing mutated isocitrate dehydrogenase (mIDH); test: Mutant IDH1 cellular assay (2-HG in medium); type: cell-based; settings: 2-HG in medium after 24 hours, fluorescence readout
Property: IC50 (nM)
Output spec: scalar in nM, unitless text.

Consider COc1cc2c(cc1C(C)(C)O)nc(Nc1ccc(OC(F)(F)F)cc1)n2[C@H]1C[C@@H](C)CC(C)(C)C1 (single isomer, unassigned; enantiomer b) [Example 2-7-2] . Its measured IC50 is 90

Note to self: IC50 recorded for COc1cc2c(cc1CO)nc(Nc1ccc(OC(F)(F)F)cc1)n2[C@H]1C[C@@H](C)CC(C)(C)C1 (single isomer, unassigned; enantiomer b) [Example 2-6-2] was 630

The compound identified as COc1cc2c(cc1CO)nc(Nc1ccc(OC(F)(F)F)cc1)n2[C@H]1C[C@@H](C)CC(C)(C)C1 (single isomer, unassigned; enantiomer a) [Example 2-6-1] registered its IC50 at 140

Documented IC50 of COc1cc2c(cc1C(C)(C)O)nc(Nc1ccc(OC(F)(F)F)cc1)n2[C@H]1C[C@@H](C)CC(C)(C)C1 (single isomer, unassigned; enantiomer a) [Example 2-7-1] : 480
